Origin of measurements: the supplement of paper PMC9170038

System: K4 kissing-loop RNA reporter
Assay: apparent KD of K4 kissing-loop reporter; higher = weaker reporter binding
Details: Eterna round: R107; input ligand: FMN 200 uM
Readout name: apparent KD of K4 kissing-loop reporter (nM)
Kindly provide the numeric value in nM only, without the unit symbol.

Recorded apparent KD of K4 kissing-loop reporter, per entry:
{"Biopolymer sequence": "CCCUAUAUAUGCAGUGAUGUUGCAACUGAUACCAGUAUCGAAAGAUACCCUUGGCAGCGGAAAACCGCUACGUAAUUUAAUAGGG [Ex Theophylline A K4 21]", "Endpoint unit": "nM", "apparent KD of K4 kissing-loop reporter": 384}
{"Biopolymer sequence": "AGCGCCUAAGCCGAUACCAGAAACGCGGUGCGUCGCACGAUUAACUAGGAAAGUGAUGUUUUCCCUUGGCAGCGGGACCUGUGAG [theeternabot_exclusion_KL_Theo_B_11]", "Endpoint unit": "nM", "apparent KD of K4 kissing-loop reporter": 119}

# context switch: different sequence, same apparent KD of K4 kissing-loop reporter
Prompt: Supply apparent KD of K4 kissing-loop reporter value. Item: "UCCUGCAAUCUGCCACGAAAGUGGAUUGAUACCAGAGUCGAAAGACUCCCUUGGCAGCGAGUGAUGUUCGAAGCAGGUAAAUAAA"
Response: 99.4

---

Tested on: K4 kissing-loop RNA reporter
Assay: apparent KD of K4 kissing-loop reporter; higher = weaker reporter binding
Conditions: Eterna round: R107; input ligand: none
Readout name: apparent KD of K4 kissing-loop reporter (nM)
Kindly provide the numeric value in nM only, without the unit symbol.

Recorded apparent KD of K4 kissing-loop reporter, per entry:
{"Biopolymer sequence": "UGUCAUUGGUCGGCCGCCACUAGAAGGUCAAAGACCAUAGAGUGAUGUUCUGAGACGAAAGUCACUAGGACCGGGACCGAUGACU [TrypBS 6 #SwitchBubble #K4Middle]", "Endpoint unit": "nM", "apparent KD of K4 kissing-loop reporter": 1140}
{"Biopolymer sequence": "UGUCAUUGGUCGGCCGCCACUACAAGGUCAAAGACCAAAGAGUGAUGUUCUUAGACGAAAGUCAGUAGGACCGGGACCGAUGACU [TrypBS 8 #SwitchBubble #K4Middle]", "Endpoint unit": "nM", "apparent KD of K4 kissing-loop reporter": 1320}
{"Biopolymer sequence": "AGACUACCACACUGUCAAUAGACAGUGAGCUAGGAUAUGCUGAUAAGCAGAAGGAGUGAUGUUCCUCGGUAGUCAAUAAAAUAAU [FmnAX 13 G29+C67]", "Endpoint unit": "nM", "apparent KD of K4 kissing-loop reporter": 364}
{"Biopolymer sequence": "UUUUUUUACUGAAGGAGCGGCAAUUGAUACGUAGAUAUAGUGAUGUUAUAUAAGAUAGAGAGCCAGGUAGGUCGCAGAUUUUUUC [ExArgB.X]", "Endpoint unit": "nM", "apparent KD of K4 kissing-loop reporter": 172}
{"Biopolymer sequence": "ACUUGAGCACAUAGCACACCAAGCAGUAGGUAGGAUAUCCGGCUUAGGAGAAGGACCAUGCAGUGAUGUUGCAUGCUCCUCCAUG [Zaribies]", "Endpoint unit": "nM", "apparent KD of K4 kissing-loop reporter": 76}

Prompt: Fill: apparent KD of K4 kissing-loop reporter (K4 kissing-loop RNA reporter) for this sequence UUACCAAGUGAUGUUUGGAAAUAUCCUAGGCAGGAUAUGCGGAAACGCAGAAGGGCCACCUUCUAGUGAAGGAAACUUCGCUAUU [Ex FMN A 3]
Response: 272

Prompt: Fill: apparent KD of K4 kissing-loop reporter (K4 kissing-loop RNA reporter) for this sequence "GUGGCACGAAAGUGCCACGCAUCCUCUGGCUAGGAUAUCUGGAAACAGAGAAGGAGCUCAUGAGUGAUGUUCAUCUAGAGGAUGC"
Response: 1010

Prompt: Fill: apparent KD of K4 kissing-loop reporter (K4 kissing-loop RNA reporter) for this sequence AGUGCACUGUCAGGAUAUAUACAGUGAUGUUGUGUAUGUCGGCAAGUCAAAGACUUGCCAUUCUGUGUAGAAGGGACUGUGUACA [#04 K4 FMN B Exclusion]
Response: 222

---

System: K4 kissing-loop RNA reporter;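 note: bound reporter read as fluorescence of individual clusters on recovered sequencing chips by microscopy, with normalized cluster intensities fitted with a binding model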
Assay: apparent KD of K4 kissing-loop reporter; higher = weaker reporter binding
Conditions: Eterna round: R107; input ligand: none
apparent KD of K4 kissing-loop reporter listing for selected sequences.
Kindly provide the numeric value in nM only, without the unit symbol.

Recorded apparent KD of K4 kissing-loop reporter, per entry:
{"Biopolymer sequence": "GGGCGCGGCGCGGCCGCCACUGCGCCUGGGUGCUCGCUGAGUGAUGUUCGUCGGCGGUUGGGUGGUAGGACCGGGUGCUGGCCGG [BDazzled - #13 SS Tryptophan B]", "Tgt": "K4 kissing-loop RNA reporter", "apparent KD of K4 kissing-loop reporter, nM": 525}
{"Biopolymer sequence": "UCUCCAAAGUCGGCCGCCACUCCGGGCCCUAUAAAUGGGCGCAGUGAUGUUGCGGCUAGGCCUCUGAGGACCGGGACUUUGUAGA [Estiorquin]", "Tgt": "K4 kissing-loop RNA reporter", "apparent KD of K4 kissing-loop reporter, nM": 31.3}
{"Biopolymer sequence": "GCCGUACGCAUGGAUACCAGCAAGCAUAGCAGGAAACUGCUAUGCACCAGUGAUGUUGGAUGCCCUUGGCAGCCAUGCGUACGGC", "Tgt": "K4 kissing-loop RNA reporter", "apparent KD of K4 kissing-loop reporter, nM": 926}
{"Biopolymer sequence": "AGUAAUGAGUGAUGUUCAAGUAGUAAGGAUACCAGUAAUUCAAAAUGCCCUUGGCAGCUUAGCGCUACCAAUAGAUGGGUAGUGG [Theophilline A V3 (+6G)]", "Tgt": "K4 kissing-loop RNA reporter", "apparent KD of K4 kissing-loop reporter, nM": 286}
{"Biopolymer sequence": "CAGAACUUGUAUAUAGGGUAUAUAAGAGAUACCAGUCAAAUUAAAGACCCUUGGCAGCUCAGGCGAGUGAUGUUCGCAGGCUAAC [Exclusion Theophylline A GF 17]", "Tgt": "K4 kissing-loop RNA reporter", "apparent KD of K4 kissing-loop reporter, nM": 113}

# context switch: different sequence, same apparent KD of K4 kissing-loop reporter
Prompt: Supply apparent KD of K4 kissing-loop reporter value. Item: "CGGAUCGCAUCAGGAUAUCUCUCAUCAGUGAUGUUGGUGAAGCGUACGCGAAAGCGUACGCAGAUGAGAGAAGGGAUGCGAUCCG"
Response: 1670

---

apparent KD of MS2 coat protein listing for selected sequences.
Test system: MS2 coat protein
Assay: apparent KD of MS2 coat protein; designed switch direction (-1 OFF switch, 1 ON switch): -1; higher = weaker reporter binding
Details: input ligand: none
Kindly provide the numeric value in nM only, without the unit symbol.

{"Biopolymer sequence": "UACAUGAGGAUCACCCAUGUUUUGUCGUGUAUGGUAUUUAUCUAGGAUAUCAAGUUACUUAUUUAUGAGAAGGAGAAUAUUAAU [JMF's solution 30] (Eterna round: R96, puzzle: Exclusion NG 3)", "Tgt": "MS2 coat protein", "apparent KD of MS2 coat protein (nM)": 25.2}
{"Biopolymer sequence": "GGUUGGCGAGGAUAUACAUGAGGAUCACCCAUGUGAGAGAAAAAAGUGAGUAAGAAAAGUAGAAGGCGCUGACG [salish99-ex3-33] (Eterna round: R96, puzzle: Exclusion 3)", "Tgt": "MS2 coat protein", "apparent KD of MS2 coat protein (nM)": 47.3}
{"Biopolymer sequence": "UUGCGGCAAGGAUAUACAUGAGGAUCACCCAUGUAGUAUUUGGUGCUGGCGAGCUGGUGUAGAAGGUGCACGCA [EX3 B.3] (Eterna round: R97, puzzle: Exclusion 3)", "Tgt": "MS2 coat protein", "apparent KD of MS2 coat protein (nM)": 16.1}
{"Biopolymer sequence": "UUGACGGCAGGAUAUACAUGAGGAUCACCCAUGUAAAUUUUUCGUUUAACUUGAAUGUGUAGAAGGGCCAACUU [Ex3 #73] (Eterna round: R97, puzzle: Exclusion 3)", "Tgt": "MS2 coat protein", "apparent KD of MS2 coat protein (nM)": 16.8}
{"Biopolymer sequence": "GUCAGGAAUGUAGGAUAUCUGCACGUUUAGUGCAGAGAAGGACAUGAGGAUCACCCAUGUAUAGUAGCUUCGGCUACACCUGAC [ENG1-A2] (Eterna round: R96, puzzle: Exclusion NG 1)", "Tgt": "MS2 coat protein", "apparent KD of MS2 coat protein (nM)": 15.9}
{"Biopolymer sequence": "AAUAAUGAGUAGGAUAUCACUAGCGAUAGCUAGUGAGAAGGACUCACAUGAGGAUCACCCAUGUGUUCCAAUAA [Mod3 Ex6/6-A4 by Brourd] (Eterna round: R97, puzzle: Exclusion 6)", "Tgt": "MS2 coat protein", "apparent KD of MS2 coat protein (nM)": 50.8}

Prompt: Supply apparent KD of MS2 coat protein value. Item: AGCGAGGCAGGAUAUACAUGAGGAUCACCCAUGUGCUUGUAUGGCGUGGAACAUCGUAGUAGAAGGGCCGCGCC [EX3 #77] (Eterna round: R97, puzzle: Exclusion 3)
Response: 22.2

Prompt: Supply apparent KD of MS2 coat protein value. Item: ACAUUGAUUGUGAGGAUAUCGAUGUGAUGGUAUGUCGAGAAGGCACAUGAGGAUCACCCAUGUGGGUUGUAGCA [JR_BMEx4_Sub035] (Eterna round: R97, puzzle: Brourd's mod of Exclusion 4)
Response: 95.2

Prompt: Supply apparent KD of MS2 coat protein value. Item: ACAACUGUAGGAUAUACUUUCUGGGUAAGCCAUUAUACUGGACAUGAGGAUCACCCAUGUAGAAGGACAGAAAG [Eternabot (Original) Solution 36] (Eterna round: R97, puzzle: Exclusion 2)
Response: 35.1

Prompt: Supply apparent KD of MS2 coat protein value. Item: AAGAAACAUGAGGAUCACCCAUGUGAGGAUAUGGCCCGCCCGGCGUGAGCUAAAUAAAUCAGAAGGCACAAAGG [salish99_ex1_r4_010] (Eterna round: R97, puzzle: Exclusion 1)
Response: 42.2
